REPORTED_PROPERTY: melting point

Check out these entries, answers already filled in.
* O=C(N/N=C/c1c(Cl)ccc(Cl)c1O)c1ccccc1C(F)(F)F | 221 to 222 °C
* O=C(N/N=C/c1cc(Cl)cc(C(F)(F)F)c1O)c1cccc(Cl)c1 | 228 to 229 °C
* COc1ccc(Br)c(/C=N/NC(=O)c2ccccc2)c1O | 187 to 189 °C
* C/C(=N\NC(=O)c1cccc(C)c1)c1cc(Br)ccc1O | 227 to 233 °C
* C/C(=N\NC(=O)c1ccccc1C)c1cc(Br)ccc1O | 201 to 203 °C
* O=C(N/N=C/c1ccc(Cl)c(Cl)c1O)c1cccc([N+](=O)[O-])c1 | 269 to 271 °C

// query Request the reported melting point associated with COc1cccc(O)c1/C=N/NC(=O)c1ccccc1
// result 215 to 216 °C

// query Request the reported melting point associated with O=C(N/N=C/c1cc(Cl)cc(Cl)c1O)c1ccc2ccccc2c1O
// result 276 to 278 °C

// query Request the reported melting point associated with O=C(N/N=C/c1cc(Cl)cc(Cl)c1O)c1cc(Cl)ccc1O
// result 287 to 292 °C
